I'd appreciate it if you could supply pIC50 values for the items below.
target: Urease [D459Y,K653P] (Canavalia ensiformis, UniProt P07374, D459Y/K653P); experiment: In vitro Urease Inhibition Assay; conditions: pH 8.2
Sequence (P07374 whole entry D459Y/K653P): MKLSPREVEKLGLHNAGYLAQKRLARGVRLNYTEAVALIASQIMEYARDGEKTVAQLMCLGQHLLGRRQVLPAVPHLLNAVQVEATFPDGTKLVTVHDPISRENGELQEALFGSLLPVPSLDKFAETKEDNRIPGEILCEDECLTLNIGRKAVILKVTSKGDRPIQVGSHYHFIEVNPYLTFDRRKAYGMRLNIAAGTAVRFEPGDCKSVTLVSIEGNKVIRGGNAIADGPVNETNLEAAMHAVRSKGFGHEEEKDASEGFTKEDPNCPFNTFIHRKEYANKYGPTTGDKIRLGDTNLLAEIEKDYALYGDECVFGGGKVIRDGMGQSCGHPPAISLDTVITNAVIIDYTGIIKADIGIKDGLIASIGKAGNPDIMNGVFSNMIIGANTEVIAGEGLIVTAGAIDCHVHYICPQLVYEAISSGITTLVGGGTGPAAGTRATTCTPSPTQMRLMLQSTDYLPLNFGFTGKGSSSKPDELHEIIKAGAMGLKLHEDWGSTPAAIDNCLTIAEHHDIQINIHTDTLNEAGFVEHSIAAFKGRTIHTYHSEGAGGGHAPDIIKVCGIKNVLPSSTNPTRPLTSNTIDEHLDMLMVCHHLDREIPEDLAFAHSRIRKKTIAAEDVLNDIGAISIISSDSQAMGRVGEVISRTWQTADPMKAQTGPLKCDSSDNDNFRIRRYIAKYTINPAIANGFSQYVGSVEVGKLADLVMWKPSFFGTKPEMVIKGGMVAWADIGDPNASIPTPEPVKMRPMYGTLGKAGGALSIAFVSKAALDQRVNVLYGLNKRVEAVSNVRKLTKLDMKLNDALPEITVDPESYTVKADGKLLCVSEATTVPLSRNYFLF
Remember, pIC50 is on a log scale: it is -log10 of the molar concentration.

Query pIC50 for NC(=S)N/N=C/Cc1ccc(OCc2ccccc2)cc1 5.44

Query pIC50 for NC(=S)N/N=C/Cc1ccc2ccc3cccc4ccc1c2c34 5.32

Query pIC50 for COc1cc(C/C=N/NC(N)=S)ccc1OCc1ccccc1 4.12

Query pIC50 for NC(=S)N/N=C/Cc1ccccc1 5.37

Query pIC50 for NC(=S)N/N=C/Cc1cccnc1 5.62

Query pIC50 for NC(=S)N/N=C/Cc1ccco1 6.24

Query pIC50 for Cc1ccc(C/C=N/NC(N)=S)o1 5.49

Query pIC50 for NC(=S)N/N=C/Cc1ccccn1 5.58

Attribution: BindingDB's records for doi:10.1111/cbdd.12379
